Each entry below carries its recorded fold change of affinity.
Target Desc: T1, Human CD3eg linker (human)
T1 construct: Single chain: epsilon and gamma subunits of human CD3 joined by a 29-mer linker, Flag-tag at the C-terminus; also called recombinant human CD3
T1 chain: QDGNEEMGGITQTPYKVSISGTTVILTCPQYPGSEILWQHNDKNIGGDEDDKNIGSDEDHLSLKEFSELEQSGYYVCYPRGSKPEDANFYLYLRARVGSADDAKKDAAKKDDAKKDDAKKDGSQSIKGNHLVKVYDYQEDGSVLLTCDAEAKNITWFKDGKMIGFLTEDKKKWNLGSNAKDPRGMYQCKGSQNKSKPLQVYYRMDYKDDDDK
Experiment Notes: Biacore SPR, vs template H183/L072
Enter your answer as a number in fold; do not include the unit.

Given H183/L072 VH Y59M (antibody, name in Kabat numbering, V domains shown) VH: QVQLVESGGGLVQPGRSLRLSCAASGFTFSNAWMHWVRQAPGKGLEWVAQIKDKGNAYAAYMAPSVKGRFTISRDDSKNSIYLQMNSLKTEDTAVYYCHYVHYASASTVLPAFGVDAWGQGTTVTVSS VL: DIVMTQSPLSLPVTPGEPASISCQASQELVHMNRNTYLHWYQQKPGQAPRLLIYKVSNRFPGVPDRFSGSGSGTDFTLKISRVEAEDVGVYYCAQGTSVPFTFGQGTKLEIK , state its recorded fold change of affinity.
1

Entry H183/L072 VH G52cH (antibody, name in Kabat numbering, V domains shown) VH: QVQLVESGGGLVQPGRSLRLSCAASGFTFSNAWMHWVRQAPGKGLEWVAQIKDKHNAYAAYYAPSVKGRFTISRDDSKNSIYLQMNSLKTEDTAVYYCHYVHYASASTVLPAFGVDAWGQGTTVTVSS VL: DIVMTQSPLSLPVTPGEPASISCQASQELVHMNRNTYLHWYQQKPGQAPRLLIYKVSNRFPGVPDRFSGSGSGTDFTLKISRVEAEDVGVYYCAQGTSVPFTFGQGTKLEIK has what fold change of affinity?
1.7
